# assay_system: human FXR (NR1H4) (Homo sapiens (Human))
# measurement_protocol: Human FXR (NR1H4) Assay (Gal4 promoter driven luciferase reporter, Indigo Bioscience kit IB00601)
# measurement_parameters: potency ranges
pEC50: −log10 of the molar value.
pEC50 overview

Give the measured pEC50 of CC[C@H]1[C@@H](O)[C@@H]2[C@H](CC[C@]3(C)[C@@H]([C@H](C)CCNC(=O)NS(=O)(=O)c4ccc(C(F)(F)F)cc4)CC[C@@H]23)[C@@]2(C)CC[C@@H](O)C[C@@H]12 .
6.00 to 7.00

Form field: reported pEC50 of CC[C@H]1[C@@H](O)[C@@H]2[C@H](CC[C@]3(C)[C@@H]([C@H](C)CCNC(=O)NS(=O)(=O)N4CCCCC4)CC[C@@H]23)[C@@]2(C)CC[C@@H](O)C[C@@H]12
> 7.00

* * *

# assay_system: human FXR (NR1H4) (Homo sapiens (Human), UniProt Q96RI1)
# Sequence (Q96RI1 whole entry, the tested form may be a part): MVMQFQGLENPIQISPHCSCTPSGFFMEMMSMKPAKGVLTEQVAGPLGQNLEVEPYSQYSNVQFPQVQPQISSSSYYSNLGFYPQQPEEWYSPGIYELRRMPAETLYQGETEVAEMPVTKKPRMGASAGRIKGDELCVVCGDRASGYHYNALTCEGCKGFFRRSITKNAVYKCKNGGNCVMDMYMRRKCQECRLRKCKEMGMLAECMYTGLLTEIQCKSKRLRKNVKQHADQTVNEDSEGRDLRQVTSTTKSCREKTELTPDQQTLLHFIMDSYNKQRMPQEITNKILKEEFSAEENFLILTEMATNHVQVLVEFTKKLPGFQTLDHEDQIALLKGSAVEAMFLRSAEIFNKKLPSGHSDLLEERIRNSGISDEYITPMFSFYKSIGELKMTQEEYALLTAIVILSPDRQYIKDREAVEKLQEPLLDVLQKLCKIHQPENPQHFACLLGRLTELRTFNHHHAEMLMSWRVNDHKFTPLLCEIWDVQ
# measurement_protocol: Human FXR (NR1H4) Assay (Gal4 promoter driven luciferase reporter, Indigo Bioscience kit IB00601)
# measurement_parameters: potency ranges
Quick list: EC50 per entry.

Form field - read-out: EC50; system: human FXR (NR1H4) (Homo sapiens (Human), UniProt Q96RI1); submitted item: CC[C@H]1[C@@H](O)[C@@H]2[C@H](CC[C@]3(C)[C@@H]([C@H](C)CCCNS(=O)(=O)[O-])CC[C@@H]23)[C@@]2(C)CC[C@@H](O)C[C@@H]12.[Na+] [Example 135]
1 to 10 µM

# query: EC50 | item CC[C@H]1[C@@H](O)[C@@H]2[C@H](CC[C@]3(C)[C@@H]([C@H](C)CCCCNS(=O)(=O)c4ccccc4)CC[C@@H]23)[C@@]2(C)CC[C@@H](O)C[C@@H]12 [Example 137] | system: human FXR (NR1H4) (Homo sapiens (Human), UniProt Q96RI1)
1 to 10 µM

Find EC50 (human FXR (NR1H4) (Homo sapiens (Human), UniProt Q96RI1)) for the entry CC[C@H]1[C@@H](O)[C@@H]2[C@H](CC[C@]3(C)[C@@H]([C@H](C)CCNS(=O)(=O)C(C)(C)C(=O)O)CC[C@@H]23)[C@@]2(C)CC[C@@H](O)C[C@@H]12 [Example 138]
1 to 10 µM

* * *

# EC50 per entry
# assay_system: human FXR (NR1H4) (Homo sapiens (Human), UniProt Q96RI1)
# measurement_protocol: Human FXR (NR1H4) Assay (Gal4 promoter driven luciferase reporter, Indigo Bioscience kit IB00601)
# measurement_parameters: potency ranges

These recorded examples may help you get a feel for the data.
| molecule | assay_system | EC50 |
| --- | --- | --- |
| CC[C@H]1[C@@H](O)[C@@H]2[C@H](CC[C@]3(C)[C@@H]([C@H](C)CCNC(=O)NS(=O)(=O)C4CC4)CC[C@@H]23)[C@@]2(C)CC[C@@H](O)C[C@@H]12 [Example 5] | human FXR (NR1H4) (Homo sapiens (Human), UniProt Q96RI1) | 100 to 1000 nM |
| CC[C@H]1[C@@H](O)[C@@H]2[C@H](CC[C@]3(C)[C@@H]([C@H](C)CNC(=O)NS(=O)(=O)c4cccc(C(C)(C)C)c4)CC[C@@H]23)[C@@]2(C)CC[C@@H](O)C[C@@H]12 [Example 115] | human FXR (NR1H4) (Homo sapiens (Human), UniProt Q96RI1) | 100 to 1000 nM |
| CC[C@H]1[C@@H](O)[C@@H]2[C@H](CC[C@]3(C)[C@@H]([C@H](C)CCCNS(=O)(=O)C(C)C)CC[C@@H]23)[C@@]2(C)CC[C@@H](O)C[C@@H]12 [Example 11] | human FXR (NR1H4) (Homo sapiens (Human), UniProt Q96RI1) | 1000 to 10000 nM |
| CC[C@H]1[C@@H](O)[C@@H]2[C@H](CC[C@]3(C)[C@@H]([C@H](C)CCNC(=O)NS(=O)(=O)c4ccc5ccccc5c4)CC[C@@H]23)[C@@]2(C)CC[C@@H](O)C[C@@H]12 [Example 1] | human FXR (NR1H4) (Homo sapiens (Human), UniProt Q96RI1) | < 100 nM |
| CC[C@H]1[C@@H](O)[C@@H]2[C@H](CC[C@]3(C)[C@@H]([C@H](C)CCNC(=O)NS(=O)(=O)C(C)(C)CO)CC[C@@H]23)[C@@]2(C)CC[C@@H](O)C[C@@H]12 [Example 122] | human FXR (NR1H4) (Homo sapiens (Human), UniProt Q96RI1) | 1000 to 10000 nM |
| CC[C@H]1[C@@H](O)[C@@H]2[C@H](CC[C@]3(C)[C@@H]([C@H](C)CCNS(=O)(=O)CCC(=O)O)CC[C@@H]23)[C@@]2(C)CC[C@@H](O)C[C@@H]12 [Example 141] | human FXR (NR1H4) (Homo sapiens (Human), UniProt Q96RI1) | 1000 to 10000 nM |
| CC[C@H]1[C@@H](O)[C@@H]2[C@H](CC[C@]3(C)[C@@H]([C@H](C)CCNC(=O)NS(=O)(=O)N4CCCCCC4)CC[C@@H]23)[C@@]2(C)CC[C@@H](O)C[C@@H]12 [Example 47] | human FXR (NR1H4) (Homo sapiens (Human), UniProt Q96RI1) | < 100 nM |
| CC[C@H]1[C@@H](O)[C@@H]2[C@H](CC[C@]3(C)[C@@H]([C@H](C)CCNC(=O)NS(=O)(=O)c4cc(F)cc(F)c4)CC[C@@H]23)[C@@]2(C)CC[C@@H](O)C[C@@H]12 [Example 102] | human FXR (NR1H4) (Homo sapiens (Human), UniProt Q96RI1) | < 100 nM |

Could you now consider this next molecule?
Kindly state the measured EC50 obtained for CC[C@H]1[C@@H](O)[C@@H]2[C@H](CC[C@]3(C)[C@@H]([C@H](C)CCNC(=O)NS(=O)(=O)N4CCN(C(=O)C(C)(C)C)CC4)CC[C@@H]23)[C@@]2(C)CC[C@@H](O)C[C@@H]12 [Example 85] with human FXR (NR1H4) (Homo sapiens (Human), UniProt Q96RI1).
100 to 1000 nM

* * *

# assay_system: human FXR (NR1H4) (Homo sapiens (Human), UniProt Q96RI1)
# measurement_protocol: Human FXR (NR1H4) Assay (Gal4 promoter driven luciferase reporter, Indigo Bioscience kit IB00601)
# Format: cell-based
# measurement_parameters: efficacy normalized to CDCA set as 100%
Entries annotated with measured Efficacy (%)
Please give a number only; it is taken to be in %.

| compound | endpoint_result |
| --- | --- |
| CC[C@H]1[C@@H](O)[C@@H]2[C@H](CC[C@]3(C)[C@@H]([C@H](C)CCNC(=O)NS(=O)(=O)c4ccc(C5(C(F)(F)F)CC5)cc4)CC[C@@H]23)[C@@]2(C)CC[C@@H](O)C[C@@H]12 [Example 106] | 281 |

Query: Efficacy (%); subject: CC[C@H]1[C@@H](O)[C@@H]2[C@H](CC[C@]3(C)[C@@H]([C@H](C)CNS(=O)(=O)c4cccc(N5CCCCC5)c4)CC[C@@H]23)[C@@]2(C)CC[C@@H](O)C[C@@H]12 [Example 142]
7

Reported Efficacy (%), compound CC[C@H]1[C@@H](O)[C@@H]2[C@H](CC[C@]3(C)[C@@H]([C@H](C)CCNC(=O)NS(=O)(=O)NC)CC[C@@H]23)[C@@]2(C)CC[C@@H](O)C[C@@H]12 [Example 125] : ____
256

Request the reported Efficacy (%) associated with CC[C@H]1[C@@H](O)[C@@H]2[C@H](CC[C@]3(C)[C@@H]([C@H](C)CCCNS(=O)(=O)C(C)C)CC[C@@H]23)[C@@]2(C)CC[C@@H](O)C[C@@H]12 [Example 11]
267

Sample CC[C@H]1[C@@H](O)[C@@H]2[C@H](CC[C@]3(C)[C@@H]([C@H](C)CCNC(=O)NS(=O)(=O)c4ccc(C(C)(C)C)cc4)CC[C@@H]23)[C@@]2(C)CC[C@@H](O)C[C@@H]12 [Example 3] — what was its Efficacy (%)?
396

Please look up its Efficacy (%): CC[C@H]1[C@@H](O)[C@@H]2[C@H](CC[C@]3(C)[C@@H]([C@H](C)CCCNC(=O)NS(=O)(=O)c4ccc(C(C)(C)C)cc4)CC[C@@H]23)[C@@]2(C)CC[C@@H](O)C[C@@H]12 [Example 12]
327

Would you mind telling me what Efficacy (%) value was observed for CC[C@H]1[C@@H](O)[C@@H]2[C@H](CC[C@]3(C)[C@@H]([C@H](C)CCNC(=O)NS(=O)(=O)c4ccc(C5CCCCC5)cc4)CC[C@@H]23)[C@@]2(C)CC[C@@H](O)C[C@@H]12 [Example 59] ?
344

Need Efficacy (%), item CC[C@H]1[C@@H](O)[C@@H]2[C@H](CC[C@]3(C)[C@@H]([C@H](C)CCCNS(=O)(=O)c4ccccc4)CC[C@@H]23)[C@@]2(C)CC[C@@H](O)C[C@@H]12 [Example 10]
168

Could you share which Efficacy (%) value was measured for CC[C@H]1[C@@H](O)[C@@H]2[C@H](CC[C@]3(C)[C@@H]([C@H](C)CCNC(=O)NS(=O)(=O)N4CCCCC4)CC[C@@H]23)[C@@]2(C)CC[C@@H](O)C[C@@H]12 [Example 39] ?
379

From: patent US10208081B2
